target-under-test: Yer184c (UniProt P39961)
Sequence: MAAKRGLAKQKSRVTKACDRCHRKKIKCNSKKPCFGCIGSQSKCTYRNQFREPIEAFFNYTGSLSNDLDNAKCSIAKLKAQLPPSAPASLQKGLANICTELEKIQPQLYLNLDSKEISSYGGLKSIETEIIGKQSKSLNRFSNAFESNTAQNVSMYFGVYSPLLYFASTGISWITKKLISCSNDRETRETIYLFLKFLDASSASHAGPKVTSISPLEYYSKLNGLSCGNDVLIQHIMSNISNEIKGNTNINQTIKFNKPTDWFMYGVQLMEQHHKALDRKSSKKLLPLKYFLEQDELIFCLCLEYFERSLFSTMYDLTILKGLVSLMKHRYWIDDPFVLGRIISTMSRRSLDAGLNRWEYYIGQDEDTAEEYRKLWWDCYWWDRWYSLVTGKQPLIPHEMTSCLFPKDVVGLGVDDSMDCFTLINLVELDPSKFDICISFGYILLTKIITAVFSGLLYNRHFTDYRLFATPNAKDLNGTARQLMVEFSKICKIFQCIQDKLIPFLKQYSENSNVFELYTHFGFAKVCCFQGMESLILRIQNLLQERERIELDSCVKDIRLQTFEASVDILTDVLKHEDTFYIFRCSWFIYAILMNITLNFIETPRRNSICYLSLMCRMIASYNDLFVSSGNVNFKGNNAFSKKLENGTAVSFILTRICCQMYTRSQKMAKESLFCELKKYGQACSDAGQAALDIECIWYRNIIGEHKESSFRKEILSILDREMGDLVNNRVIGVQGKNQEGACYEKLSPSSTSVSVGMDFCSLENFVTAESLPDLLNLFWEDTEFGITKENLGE
experiment-notes: PBM E-score (8-mer binding enrichment) (E-score (-0.5 to 0.5)); higher = stronger / more preferred TF binding
experimental-context: protein concentration: 100 nM; construct: GST-full length
The full ranking holds about 33,000 sequences; the median of “E-score (-0.5 to 0.5)” is about -0.016, and the highest 2% start at about 0.3. Many of the other results were omitted from the sample, so the highest values are more common in it than they were.
value-kind: PBM E-score
Answer field: number only, no words.

*Q* Any idea what PBM E-score was measured for `CTCTTCAA` ?
*A* -0.129

*Q* Requested read-out: PBM E-score. Entry: `TACGGAAA`
*A* 0.362

*Q* Quick one: PBM E-score of `GATGAGCA` ?
*A* 0.0238

*Q* Query (sequence): `TGACTACA` ; field requested: PBM E-score
*A* -0.022

*Q* Which measured PBM E-score value corresponds to `CTGAGTGA` ?
*A* 0.24

*Q* Need PBM E-score, item `CGGCTTCC`
*A* 0.198

*Q* Please look up its PBM E-score: `GGGTTAGA`
*A* -0.134

*Q* Give its PBM E-score value. Item: `CGGCTTCA`
*A* 0.345

*Q* Quick one: PBM E-score of `AGGCTTCA` ?
*A* -0.108

*Q* Name the reported PBM E-score value associated with the sequence `AACGGAGT`
*A* 0.312

*Q* # PBM E-score lookup, item `AACAAGAA`
*A* 0.257

*Q* Please look up its PBM E-score: `AACGGAGA`
*A* 0.107

*Q* Reported PBM E-score, sequence `CACGGAAC` : ____
*A* 0.349

*Q* Any idea what PBM E-score was measured for `AACGGAGC` ?
*A* -0.0449

*Q* Give its PBM E-score value. Item: `ACGCAATA`
*A* 0.135

*Q* Entry under review: `TGGCTTAA` . Reported PBM E-score?
*A* 0.175

*Q* Can you share its PBM E-score? I mean this sequence: `CGGCTTAG`
*A* 0.213

*Q* Field request: PBM E-score | item: `AGCTTAAT`
*A* 0.201

*Q* Would you kindly share the measured PBM E-score for `GACGGAAA` ?
*A* 0.213

*Q* Which PBM E-score is listed for `CCAAAGCG` ?
*A* -0.0768

*Q* Look up PBM E-score for this sequence: `AAATTTGT`
*A* 0.213

*Q* Recorded PBM E-score for `TACGGGAA` , please?
*A* 0.142
